molecular target: T1, RSV-F.mmh (Respiratory Syncytial Virus); assay: SPR (Biacore), mAb captured via Fc, soluble RSV-F.mmh injected, 25 C
T1 construct: also called recombinant RSV-F; soluble monomeric RSV-F
quantity: kon (M⁻¹ s⁻¹)
Give bare numbers, in M⁻¹ s⁻¹.

INSERT INTO assay_data (binder, quantity, readoutnumber) VALUES
  ('H1H3605P (antibody, V domains shown) VH: QVQLQESGPGLVKPSETLSLTCTVSGGFISNYYWSWIRQPPGKGLEWIGYIYYSGSTKYNPSLKSRVTISVDTSKNQFSLKLSSVSAADTAVYYCARDGVVAAAGPPYHYHYGLDVWGQGTTVTVSS VL: DIVMTQSPDSLAVSLGERATINCKSSQNLLYTSSNKNSLAWYQQKPGQPPELLIYWASTRESGVPDRFSGSGSGTDFILTISSLQAEDVAVYYCQQYYSSPWTFGQGTKVEIK', 'kon', 2800);

So, H1H3607P (antibody, V domains shown) VH: QVQLVESGGGLVKPGGSLRLSCAASGFTFSDYYMTWIRQVPGKGLEWVSYISSTGNNRYYGDSVKGRFAISRDNAKNLLFLQMNSLKAEDTAVYYCARENNWNPYFFYYGMDVWGQGTTVTVSS VL: DIQMTQSPSSVSASVGDRVTITCRASQGISIWLAWYQQKPGKAPKLLISAASTLQSGVPSRFSGSGSGTDFTLTISSLQPEDFATYYCQQANSFPLTFGQGTKVEIK ? Its kon was 4200
